experiment-summary: Pharmacokinetic test in mice
Assay type: in vivo, ICR mice
test-settings: male, ICR, mouse, plasma, 5 mg/kg, PO - 5 mpk
property: Cmax (ng/mL)

Observe how each entry below is paired with its result.
>  <compound>
Cc1cc(N2CC3(CN(C(=O)C(C)(C)O)C3)C2)cc2c(N(C)c3nc(-c4ccc(F)cc4)c(C#N)s3)c3c(nc12)CCO3

>  <quantitative-result>
2010

$$$$
>  <compound>
CN(c1nc(-c2ccc(F)cc2)c(C#N)s1)c1c2c(nc3c(F)cc(N4CC5(CN(C(=O)C(C)(C)O)C5)C4)cc13)[C@@H](O)CC2 (single isomer, unassigned)

>  <quantitative-result>
3010

$$$$
>  <compound>
CN(c1nc(-c2ccc(F)cc2)c(C#N)s1)c1c2c(nc3c(F)cc(N4CC5(CN(C(=O)C(C)(C)O)C5)C4)cc13)CCC2

>  <quantitative-result>
2660

$$$$
>  <compound>
CN(c1nc(-c2ccc(F)cc2)c(C#N)s1)c1c2c(nc3c(F)cc(N4CC5(CN(C(=O)C(C)(C)O)C5)C4)cc13)CC2

>  <quantitative-result>
10200

$$$$
>  <compound>
Cc1cc(N2CC3(CN(C(=O)C(C)(C)O)C3)C2)cc2c(N(C)c3nc(-c4ccc(F)cc4)c(C#N)s3)c3c(nc12)CC3

>  <quantitative-result>
8390

$$$$
>  <compound>
Cc1cc(N2CC3(CN(C(=O)C(C)(C)O)C3)C2)nc2c(N(C)c3nc(-c4ccc(F)cc4)c(C#N)s3)c3c(nc12)CC3

>  <quantitative-result>
3640

$$$$

a: Cc1cc(N2CC3(CN(C(=O)C(C)(C)O)C3)C2)cc2c(N(C)c3nc(-c4ccc(F)cc4)c(C#N)s3)c3c(nc12)C(O)CC3 (centres unmarked)
b: CN(c1nc(-c2ccc(F)cc2)c(C#N)s1)c1c2c(nc3c(F)cc(N4CC5(CN(C(=O)[C@@H]6CCOC6)C5)C4)cc13)CC2
c: Cc1cc(N2CC3(CN(C(=O)C(C)(C)O)C3)C2)nc2c(N(C)c3nc(-c4ccc(F)cc4)c(C#N)s3)c3c(nc12)C(O)CC3 (centres unmarked)
Provide the items ranked by increasing Cmax. Please list the labels according to the requested order.
c, b, a
(c: 2040 ng/mL, b: 2920 ng/mL, a: 4430 ng/mL)

----------
experiment-summary: Pharmacokinetic test in mice
Type: in vivo, ICR mice
test-settings: male, ICR, mouse, plasma, 1 mg/kg, IV - 1 mpk
Protocol: Dosage preparation: The dosing solution was prepared on the day of dosing. 2 mg of compound was weighed and dissolved in 5% DMSO+10% solutol+85% saline to prepare a solution for intravenous administration at a concentration of 0.2 mg/mL. 2 mg of compound was weighed and dissolved in 25% PEG 200+75% (0.5% MC) to obtain a solution for oral administration at a concentration of 1 mg/mL. […]
property: half-life (h)

Observe how each entry below is paired with its result.
>  <compound>
CN(c1nc(-c2ccc(F)cc2)c(C#N)s1)c1c2c(nc3c(F)cc(N4CC5(CN(C(=O)C(C)(C)O)C5)C4)cc13)CC2

>  <half-life, h>
3.63

$$$$
>  <compound>
CN(c1nc(-c2ccc(F)cc2)c(C#N)s1)c1c2c(nc3c(F)cc(N4CC5(CN(C(=O)C(C)(C)O)C5)C4)cc13)[C@@H](O)CC2 (single isomer, unassigned)

>  <half-life, h>
1.87

$$$$
>  <compound>
CN(c1nc(-c2ccc(F)cc2)c(C#N)s1)c1c2c(nc3c(F)cc(N4CC5(CN(C(=O)[C@@H]6CCOC6)C5)C4)cc13)CC2

>  <half-life, h>
1.23

$$$$
>  <compound>
CN(c1nc(-c2ccc(F)cc2)c(C#N)s1)c1c2c(nc3c(F)cc(N4CC5(CN(C(=O)C(C)(C)O)C5)C4)cc13)[C@](C)(O)CC2 (single isomer, unassigned)

>  <half-life, h>
2.51

$$$$

A: Cc1cc(N2CC3(CN(C(=O)C(C)(C)O)C3)C2)nc2c(N(C)c3nc(-c4ccc(F)cc4)c(C#N)s3)c3c(nc12)CC3
B: CN(c1nc(-c2ccc(F)cc2)c(C#N)s1)c1c2c(nc3c(F)cc(N4CC5(CN(C(=O)[C@H]6CCOC6)C5)C4)cc13)COC2
Decide: A or B , by lowest recorded half-life. Refer to your chosen item by its label in the answer.
B
(B: 1.82 h, A: 2.73 h)
